- measured-on: T1, hMFI2 Tf-like Domain 2 (TLD2), amino acids 366-709, displayed on yeast (human, UniProt P08582 366-709)
- T1 construct: also called TFLD2; transferrin-like domain 2
- T1 sequence: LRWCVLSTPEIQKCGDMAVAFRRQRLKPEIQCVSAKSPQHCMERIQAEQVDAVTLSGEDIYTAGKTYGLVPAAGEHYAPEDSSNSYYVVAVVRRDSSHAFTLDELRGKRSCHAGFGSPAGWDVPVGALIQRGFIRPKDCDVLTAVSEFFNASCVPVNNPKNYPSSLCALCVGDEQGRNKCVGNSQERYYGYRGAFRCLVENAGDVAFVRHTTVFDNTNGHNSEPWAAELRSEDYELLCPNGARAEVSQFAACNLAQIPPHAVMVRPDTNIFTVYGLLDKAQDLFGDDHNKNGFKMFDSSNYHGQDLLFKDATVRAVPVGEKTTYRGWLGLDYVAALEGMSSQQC
- protocol: flow cytometry on yeast displaying hMFI2 domains

binder	binding result
SC57.11 (antibody, V domains shown) VH: QVQLQQSGAELMKPGASVKISCKATGYTFSNYRIEWMKQRPGHGLEWIGEILPRTGNTNYNENFKGKATFTADTSSNTAYIQLSSLTSEDSAVYYCARDDGYYGRFAYWGQGTLVTVSA VL: DIQMTQTTSSLSASLGDRVTISCRASQDISSYLNWYQQKPDGTVKLLIYYTSRLHSGVPSRFSGSGSGTDYSLTINNLEQEDIATYFCQQGNTLPPTFGGGTKLEIK	binds
SC57.10 (antibody, V domains shown) VH: QVQLQQSGAELMKPGASVKISCKATGYTFSNYRIEWIKQRPGHGLEWIGEILPRGGNTNYNEKFKGKATFTADTSSNTAYMQLTSLTSEDSAVYYCARDDGYYGRFAYWGQGTLVTVSA VL: DIQMTQTTSSLSASLGDRVTISCRASQDISNYLNWYQQKPDGTVKLLIFYTSRLHSGVPSRFSGSGSGTDYSLTISNLEQEDFATYFCQQGNTLPPTFGGGTKLEIK	binds
